Target: UniProt:P10635
Sequence (P10635 whole entry): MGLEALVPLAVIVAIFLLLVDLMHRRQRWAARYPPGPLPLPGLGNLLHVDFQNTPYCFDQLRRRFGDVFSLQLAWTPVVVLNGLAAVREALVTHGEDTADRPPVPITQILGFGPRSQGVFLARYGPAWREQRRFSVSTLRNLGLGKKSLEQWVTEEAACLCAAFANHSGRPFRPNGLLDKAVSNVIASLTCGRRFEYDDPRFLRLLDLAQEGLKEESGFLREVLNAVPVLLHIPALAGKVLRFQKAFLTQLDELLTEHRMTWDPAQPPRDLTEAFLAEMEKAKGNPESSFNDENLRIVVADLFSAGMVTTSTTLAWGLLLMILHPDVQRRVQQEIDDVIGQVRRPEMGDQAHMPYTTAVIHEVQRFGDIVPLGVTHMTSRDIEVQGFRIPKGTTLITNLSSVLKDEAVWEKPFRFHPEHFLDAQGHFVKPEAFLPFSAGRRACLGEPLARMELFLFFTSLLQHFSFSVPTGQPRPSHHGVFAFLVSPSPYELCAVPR
Assay: Inhibition of human CYP2D6 by luminometry
Here the recorded EC50 is given for each entry.
Give just the number in µM; leave the unit off.

Mol Smiles | System Under Test | Units Symbol | EC50
COC(=O)N[C@@H](C(=O)N1CCC[C@H]1C(=O)Nc1ccc(-c2ccc(NC(=O)[C@@H]3CCCN3C(=O)[C@H](NC(=O)OC)c3ccccc3)cc2Cl)c(Cl)c1)c1ccccc1 | UniProt:P10635 | µM | 41.2

Moving on to another compound below.
For this compound ( COC(=O)N[C@@H](C(=O)N1CCC[C@H]1C(=O)Nc1ccc(-c2ccc(NC(=O)[C@@H]3CCCN3C(=O)[C@H](NC(=O)OC)c3ccccc3)cc2F)c(F)c1)c1ccccc1 ), measured EC50 is 4.94

* * *

Assay: Oral bioavailability in Sprague-Dawley rat at 10 mg/kg by LC/MS/MS method
Type: ADME, organism-based
Settings: in vivo
Assay Endpoint: bioavailability (%)
Give just the number in %; leave the unit off.

For this compound ( COC(=O)N[C@@H](C(=O)N1CCC[C@H]1C(=O)Nc1ccc(-c2ccc(NC(=O)[C@@H]3CCCN3C(=O)[C@H](NC(=O)OC)c3ccccc3)cc2F)c(F)c1)c1ccccc1 ), measured bioavailability is 3.12

For this compound ( COC(=O)N[C@@H](C(=O)N1CCC[C@H]1C(=O)Nc1ccc(-c2ccc(NC(=O)[C@@H]3CCCN3C(=O)[C@H](NC(=O)OC)c3ccccc3)cc2Cl)c(Cl)c1)c1ccccc1 ), measured bioavailability is 4.99

For this compound ( COC(=O)N[C@@H](C(=O)N1CCC[C@H]1C(=O)Nc1ccc2c(c1)C(C)(C)c1cc(NC(=O)[C@@H]3CCCN3C(=O)[C@H](NC(=O)OC)c3ccccc3)ccc1-2)c1ccccc1 ), measured bioavailability is 13.8

For this compound ( COC(=O)N[C@@H](C(=O)N1CCC[C@H]1C(=O)Nc1ccc2c(c1)C(F)(F)c1cc(NC(=O)[C@@H]3CCCN3C(=O)[C@H](NC(=O)OC)c3ccccc3)ccc1-2)c1ccccc1 ), measured bioavailability is 7.6

For this compound ( COC(=O)N[C@@H](C(=O)N1CCC[C@H]1C(=O)Nc1ccc(-c2ccc(NC(=O)[C@@H]3CCCN3C(=O)[C@H](NC(=O)OC)c3ccccc3)cc2C(F)(F)F)c(C(F)(F)F)c1)c1ccccc1 (stereo in doubt; form 1) ), measured bioavailability is 11.7

* * *

Assay: Stability in human liver microsomes assessed as compound remaining at 1 uM after 0.5 hrs by LC-MS/MS method
Assay type: ADME
Conditions: read-out: Stability
Assay Endpoint: remaining at 0.5 h, 1 µM (%)
Give just the number in %; leave the unit off.

Compound | Units Symbol | remaining at 0.5 h, 1 µM
COC(=O)N[C@@H](C(=O)N1CCC[C@H]1C(=O)Nc1ccc2c(c1)C(C)(C)c1cc(NC(=O)[C@@H]3CCCN3C(=O)[C@H](NC(=O)OC)c3ccccc3)ccc1-2)c1ccccc1 | % | 95
COC(=O)N[C@@H](C(=O)N1CCC[C@H]1C(=O)Nc1ccc(-c2ccc(NC(=O)[C@@H]3CCCN3C(=O)[C@H](NC(=O)OC)c3ccccc3)cc2C(F)(F)F)c(C(F)(F)F)c1)c1ccccc1 (stereo in doubt; form 1) | % | 79
COC(=O)N[C@@H](C(=O)N1CCC[C@H]1C(=O)Nc1ccc(-c2ccc(NC(=O)[C@@H]3CCCN3C(=O)[C@H](NC(=O)OC)c3ccccc3)cc2Cl)c(Cl)c1)c1ccccc1 | % | 96
COC(=O)N[C@@H](C(=O)N1CCC[C@H]1C(=O)Nc1ccc2c(c1)C(F)(F)c1cc(NC(=O)[C@@H]3CCCN3C(=O)[C@H](NC(=O)OC)c3ccccc3)ccc1-2)c1ccccc1 | % | 92

Moving on to another compound below.
For this compound ( COC(=O)N[C@@H](C(=O)N1CCC[C@H]1C(=O)Nc1ccc(-c2ccc(NC(=O)[C@@H]3CCCN3C(=O)[C@H](NC(=O)OC)c3ccccc3)cc2F)c(F)c1)c1ccccc1 ), measured remaining at 0.5 h, 1 µM is 97
